SUBJECT_OF_TEST: CYP2C9 (Homo sapiens)
Sequence (P11712 whole entry): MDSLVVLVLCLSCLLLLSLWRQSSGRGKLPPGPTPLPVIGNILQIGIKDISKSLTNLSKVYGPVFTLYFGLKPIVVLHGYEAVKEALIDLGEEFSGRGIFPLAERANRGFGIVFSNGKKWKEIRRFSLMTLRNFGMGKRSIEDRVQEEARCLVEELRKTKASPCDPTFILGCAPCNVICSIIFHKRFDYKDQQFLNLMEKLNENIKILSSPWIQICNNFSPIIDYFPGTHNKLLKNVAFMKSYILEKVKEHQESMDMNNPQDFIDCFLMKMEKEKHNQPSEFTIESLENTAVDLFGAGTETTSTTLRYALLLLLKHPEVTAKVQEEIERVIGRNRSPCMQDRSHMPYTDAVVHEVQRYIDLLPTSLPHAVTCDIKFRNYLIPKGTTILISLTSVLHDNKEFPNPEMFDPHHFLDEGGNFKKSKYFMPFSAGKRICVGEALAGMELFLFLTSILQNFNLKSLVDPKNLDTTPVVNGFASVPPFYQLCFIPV
PROTOCOL_TEXT: Inhibition of CYP2C9 in human liver microsomes at 10 uM after 20 mins in presence of NADPH by LC/MS/MS analysis relative to control
Format: ADME
Recorded inhibition at 20 min, 10 µM determines the label; the label ranges are LOW: < 60%; MEDIUM: ≥ 60% and < 80%; HIGH: ≥ 80%

Some entries whose results are on file:
COMPOUND_STRUCTURE_STRING: Cc1cc(-n2ccnc2)ccc1-c1ccc(C(=O)O)cc1
LABEL_CLASS: LOW
--
COMPOUND_STRUCTURE_STRING: Cc1cc(-n2ccnc2)ccc1-c1ccc(-c2nnn[nH]2)cc1
LABEL_CLASS: HIGH
--
COMPOUND_STRUCTURE_STRING: Cc1nccn1-c1ccc(-c2ccc(-c3nnn[nH]3)cc2)cc1
LABEL_CLASS: LOW
--
COMPOUND_STRUCTURE_STRING: Cc1cc(-n2ccnc2)ccc1-c1ccc(-c2nnn[nH]2)cc1Cl
LABEL_CLASS: HIGH
--
COMPOUND_STRUCTURE_STRING: CCc1cc(-n2ccnc2)ccc1-c1ccc(-c2nnn[nH]2)cc1
LABEL_CLASS: HIGH

# input Each compound maps to one class by inhibition at 20 min, 10 µM. Which class for c1cn(-c2ccc(-c3ccc(-c4nn[nH]n4)cc3)cc2)cn1 ?
# output MEDIUM

# input // bin(item) where item = Fc1cc(-c2nnn[nH]2)ccc1-c1ncc(-n2ccnc2)cc1Cl
# output LOW

# input Bin this entry: Clc1cc(-n2ccnc2)cnc1-c1ccc(-c2nnn[nH]2)cc1
# output MEDIUM

# input Assign a bin to CCc1cc(-n2ccnc2C)ccc1-c1ccc(-c2nnn[nH]2)cc1
# output LOW

# input # classify by inhibition at 20 min, 10 µM band: Clc1cc(-c2nnn[nH]2)ccc1-c1ccc(-n2ccnc2)cc1
# output HIGH

----------
PROTOCOL_TEXT: Effective permeability of the compound by PAMPA assay
Type: ADME
ASSAY_SETUP: read-out: Peff
MEASUREMENT_LABEL: Papp (×10⁻⁶ cm/s)
Give the value, in units of ×10⁻⁶ cm/s, as a plain number.

# input Provide only the value of recorded Papp for Clc1cc(-c2nnn[nH]2)ccc1-c1ccc(-n2ccnc2)cc1
# output 0.12

----------
PROTOCOL_TEXT: Metabolic stability of mouse liver microsomes assessed as parent compound remaining at 0.1 uM after 60 mins in presence of NADPH by LC/MS/MS analysis
Format: ADME, microsome
ASSAY_SETUP: read-out: Stability
MEASUREMENT_LABEL: remaining at 1 h, 0.1 µM (%)
Numbers only here, please. The scale is %.

COMPOUND_STRUCTURE_STRING: CCc1cc(-n2ccnc2)ccc1-c1ccc(-c2nnn[nH]2)cc1F
RESULT_VALUE: 78

COMPOUND_STRUCTURE_STRING: Cc1cc(-n2ccnc2)ccc1-c1ccc(-c2nnn[nH]2)cc1
RESULT_VALUE: 44

COMPOUND_STRUCTURE_STRING: Cc1nccn1-c1ccc(-c2ccc(-c3nnn[nH]3)cc2)cc1
RESULT_VALUE: 92

COMPOUND_STRUCTURE_STRING: Clc1cc(-c2nnn[nH]2)ccc1-c1ccc(-n2ccnc2)cc1
RESULT_VALUE: 43

COMPOUND_STRUCTURE_STRING: Cc1cc(-n2ccnc2)ccc1-c1ccc(C(=O)O)cc1
RESULT_VALUE: 48

COMPOUND_STRUCTURE_STRING: CCc1cc(-n2ccnc2C)ccc1-c1ccc(-c2nnn[nH]2)cc1
RESULT_VALUE: 87

Consider the additional compound presented here.
# input Tell me remaining at 1 h, 0.1 µM reported for c1cn(-c2ccc(-c3ccc(-c4nn[nH]n4)cc3)cc2)cn1
# output 31
